tested on: NSC34 cells; experiment: Cell viability dose response, NSC34; type: cell-based, mouse; details: Mus musculus, NSC-34; NSC34, 24 hr
pIC50: −log10 of the molar value.
assay readout: pIC50

-- ask Report its pIC50 with NSC34 cells as the test system: O=C1C=C2CC3(O)COc4c(ccc(O)c4O)C3=C2C=C1O (stereo not shown)
-- reply ~4.11
